# targetUnderTest: human recombinant histamine H1 receptor (Homo sapiens, UniProt P35367)
# Construct: expressed in transfected cells; host or cells: CHO cells
# Sequence (P35367 whole entry): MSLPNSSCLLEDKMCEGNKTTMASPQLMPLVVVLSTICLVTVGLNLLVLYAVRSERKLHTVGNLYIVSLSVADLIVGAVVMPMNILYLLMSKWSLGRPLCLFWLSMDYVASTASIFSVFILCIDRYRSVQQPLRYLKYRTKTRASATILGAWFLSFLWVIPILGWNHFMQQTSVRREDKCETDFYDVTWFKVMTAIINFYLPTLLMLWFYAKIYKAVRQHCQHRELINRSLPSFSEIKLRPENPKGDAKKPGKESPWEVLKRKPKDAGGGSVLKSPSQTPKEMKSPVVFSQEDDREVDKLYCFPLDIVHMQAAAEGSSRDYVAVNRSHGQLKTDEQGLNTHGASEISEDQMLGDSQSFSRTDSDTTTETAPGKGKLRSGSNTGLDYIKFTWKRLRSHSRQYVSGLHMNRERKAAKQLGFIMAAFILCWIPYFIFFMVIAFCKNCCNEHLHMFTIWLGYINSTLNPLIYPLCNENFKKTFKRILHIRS
# assayInfo: Histamine H1 radioligand binding ([3H]Pyrilamine)
# details: 0.03 μM compound; […] [3H]Pyrilamine; read-out: Histamine Binding H1, percent inhibition of specific binding
Below is a list of entries, each paired with its recorded inhibition at 0.03 µM value.
Give just the numeric value; % need not be written.

Example results:
CCN1CCc2c(c3cc(C)ccc3n2CC(O)c2ccc(C)cc2)C1 (racemic): 37
CCN1CCc2c(c3cc(C)ccc3n2CCc2ccncc2)C1: 58
CCN1CCc2c(c3cc(C)ccc3n2CCc2ccccc2)C1: 59
Cc1ccc(CCn2c3c(c4ccccc42)CN(C)CC3)cc1: 32
CCN1CCc2c(c3ccccc3n2CCc2ccccc2)C1: 47

human recombinant histamine H1 receptor (Homo sapiens, UniProt P35367) data for Cc1ccc(CCn2c3c(c4cc(C)ccc42)CN(C)CC3)cc1 ; its inhibition at 0.03 µM: 71

Reading of inhibition at 0.03 µM for CCN1CCc2c(c3cc(C)ccc3n2CCc2ccc(C)cc2)C1 with human recombinant histamine H1 receptor (Homo sapiens, UniProt P35367): 67

I looked up Cc1ccc2c(c1)c1c(n2CCc2ccncc2)CCN(C)C1 and its inhibition at 0.03 µM for human recombinant histamine H1 receptor (Homo sapiens, UniProt P35367) was 63

---

# targetUnderTest: human recombinant histamine H2 receptor (Homo sapiens)
# Construct: expressed in transfected cells; host or cells: CHO-K1 cells
# Sequence (P25021 whole entry): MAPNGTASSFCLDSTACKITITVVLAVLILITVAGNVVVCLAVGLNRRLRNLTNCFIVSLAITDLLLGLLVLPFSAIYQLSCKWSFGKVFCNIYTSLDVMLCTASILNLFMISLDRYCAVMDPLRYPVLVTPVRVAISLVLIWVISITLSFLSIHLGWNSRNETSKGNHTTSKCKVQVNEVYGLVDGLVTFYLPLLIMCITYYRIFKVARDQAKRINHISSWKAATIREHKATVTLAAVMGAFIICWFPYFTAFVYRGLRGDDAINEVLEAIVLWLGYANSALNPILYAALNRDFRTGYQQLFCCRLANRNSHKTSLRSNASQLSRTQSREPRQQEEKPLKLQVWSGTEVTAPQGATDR
# assayInfo: Histamine H2 radioligand binding ([125I]Aminopotentidine)
# details: percent inhibition of specific binding; screened at 1 μM; read-out: Inhibition of ligand binding, Hist. H2
Respond with yes for inhibition at 1 µM values of 50% and above, no for values below.

Answered examples (5):
Cc1ccc2c(c1)c1c(n2CCC(=O)N2CCC(N)CC2)CCN(C)C1: no
CC1CCN(C(=O)Cn2c3c(c4cc(Cl)ccc42)CN(C)CC3)CC1: no
Cc1ccc2c(c1)c1c(n2CCc2ccccc2)CCN(C(=O)OCC(Cl)(Cl)Cl)C1: no
CCc1ccc(CCn2c3c(c4cc(C)ccc42)CN(C)CC3)cn1: yes
CN1CCc2c(c3cc(Cl)ccc3n2CC(=O)N2CCOCC2)C1: no

QUERY: Does inhibition at 1 µM meet or surpass 50% for CCc1ccc2c(c1)c1c(n2CCc2cnc(C)cn2)CCN(C)C1 ?
RESULT: no

QUERY: Threshold query (inhibition at 1 µM >= 50%) on CCc1ccc(CCn2c3c(c4cc(Cl)ccc42)CN(C)CC3)cn1
RESULT: yes

QUERY: Could you please find out whether CN1CCc2c(c3cc(Cl)ccc3n2CCC(=O)N2CCOCC2)C1 has inhibition at 1 µM that meets 50% or exceeds it?
RESULT: no

QUERY: Decide: inhibition at 1 µM of Cc1ccc2c(c1)c1c(n2CCN2CCCCC2)CCN(C)C1 >= 50%?
RESULT: yes

QUERY: Please check the record CN1CCc2c(c3cc(Cl)ccc3n2CCC(=O)N2CCCC2)C1 and state if its inhibition at 1 µM is at or above 50%.
RESULT: no

QUERY: Reported inhibition at 1 µM reaches at least 50% for Cc1ccc2c(c1)c1c(n2CC(=O)N2CCCC2)CCN(C)C1 ?
RESULT: no
